experiment: Components of the Cytosolic LPS Sensing Pathway: Gene Identification via Genome-wide siRNA Screen
test parameters: RAW264.7 macrophages, IL-1a HTRF, actives lie on both sides, screened at 100 nM (by protocol), cells primed 5 h with Pam3CSK4 first
Hit rate of the full screen: of about 53,000 sequences, about 3,700 (7%) were called active.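 Rule for the calls: active = gene knockdowns whose robust z-score for IL-1 alpha signal is at least 2 or at most -2, so actives lie on both sides; inactive = the rest.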 The entries come from a sample that favours actives as a whole.
Would you mind answering with one of these outcomes? TRUE = active, FALSE = inactive

Take a look at these entries with their results.
In: Dear all, I need the recorded test outcome for GGACUUCUCCUUUAAUAAUTT against Cox7a2l , thank you.
Out: FALSE

In: Dear all, I need the recorded test outcome for GGACUGAAGUCCUUGACACTT against Lgi3 , thank you.
Out: FALSE

---
In: Dear all, I need the recorded test outcome for GCAAGACUCUACACAUCACTT against Nox4 , thank you.
Out: FALSE

In: Dear all, I need the recorded test outcome for GGACACUUCCAAACUGACCTT against Tiparp , thank you.
Out: FALSE

----------
experiment: Components of the Cytosolic LPS Sensing Pathway: Gene Identification via Genome-wide siRNA Screen
test parameters: RAW264.7 macrophages, IL-1a HTRF, actives lie on both sides, screened at 100 nM (by protocol), cells primed 5 h with Pam3CSK4 first
Out of some 53,000 sequences screened, about 3,700 (7%) were called active. Only a selection was taken, and actives are over-represented in it overall.
Outcome: y for z-score of at least 0.2; n for anything lower.

In: In plain terms: is recorded z-score at least 0.2 for GGACCUAUUACCUCAAUGATT against Spatc1l ?
Out: n

In: In plain terms: is recorded z-score at least 0.2 for GGAGCAAUUAAAGGUGUCATT against Fpr-rs3 ?
Out: n

In: In plain terms: is recorded z-score at least 0.2 for CCAGGUGUAACAAAAAAGATT against Dtl ?
Out: y

In: In plain terms: is recorded z-score at least 0.2 for GGAGCUUUCUCAAGAUUCATT against Arid1a ?
Out: y

In: In plain terms: is recorded z-score at least 0.2 for GCUUUUCAUAUCUCUUGCATT against Olfr1385 ?
Out: y

----------
experiment: Components of the Cytosolic LPS Sensing Pathway: Gene Identification via Genome-wide siRNA Screen;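 note: robust z of the log signal after scaling to non-targeting control siRNA wells of the plate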
test parameters: RAW264.7 macrophages, IL-1a HTRF, actives lie on both sides, screened at 100 nM (by protocol), cells primed 5 h with Pam3CSK4 first
Screen size: about 53,000 sequences; about 3,700 (7%) were called active. This excerpt belongs to a sample that is enriched for actives.
property measured: z-score
Quick one: just the number, no unit, thanks!

Previously resolved entries follow.
In: For the sequence GUUCCACCAGAUUUUCUAATT against Vmn1r28 , give its measured z-score value.
Out: 2.6

In: For the sequence GGGAAUCGGACCAACUUACTT against Adssl1 , give its measured z-score value.
Out: 3.64

In: For the sequence CCUUCAACACCAGUUUGGGTT against Olfr1393 , give its measured z-score value.
Out: 0.45

---
In: For the sequence GGACACUGUACAGAAGCUGTT against Asb18 , give its measured z-score value.
Out: -2.31

In: For the sequence CGGAGUGAAACUACUCAUUTT against Ckb , give its measured z-score value.
Out: -0.773

In: For the sequence GGGAAAAUGCGAUUCAUGATT against P2ry14 , give its measured z-score value.
Out: -0.774

In: For the sequence GGACUUCAAGGACUUCUACTT against Crtap , give its measured z-score value.
Out: 0.112

----------
experiment: Components of the Cytosolic LPS Sensing Pathway: Gene Identification via Genome-wide siRNA Screen;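 note: robust z of the log signal after scaling to non-targeting control siRNA wells of the plate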
test parameters: RAW264.7 macrophages, IL-1a HTRF, actives lie on both sides, screened at 100 nM (by protocol), cells primed 5 h with Pam3CSK4 first
Among all 53,000 sequences or so, about 3,700 (7%) were called active. This is one part of a sample in which actives are shown more often than they occur.
A collection of sequences and their measured z-score

Previously resolved entries follow.
In: For the sequence GCCUUUGGAAGUUCAGAACTT against Rnf216 , give its measured z-score value.
Out: -1.07 (inactive)

In: For the sequence GGAAGUUAAGCAUAGUUUCTT against Flrt3 , give its measured z-score value.
Out: 1.15 (inactive)

In: For the sequence GCACGUACCUGAUAGUCCUTT against Daglb , give its measured z-score value.
Out: -0.976 (inactive)

In: For the sequence CCCAGAAGGACGGCACUAGTT against H2-DMb2 , give its measured z-score value.
Out: 0.265 (inactive)

---
In: For the sequence GGAAGUGGAAAAAGUUUAGTT against Brip1 , give its measured z-score value.
Out: 0.442 (inactive)

In: For the sequence GGAUACGCUUGUCCCACCATT against Mdm1 , give its measured z-score value.
Out: -0.649 (inactive)

In: For the sequence GGAAUUCAAUGACGUGUACTT against Mapk14 , give its measured z-score value.
Out: 0.493 (inactive)

In: For the sequence GGUCACACCCAUAAACUAATT against B630019K06Rik , give its measured z-score value.
Out: -0.167 (inactive)

In: For the sequence CCGAAGUUCACCCUAAAGGTT against Lmna , give its measured z-score value.
Out: -0.485 (inactive)

In: For the sequence GCUAUUGACAUAAUGAGGCTT against Nfe2l3 , give its measured z-score value.
Out: -1.41 (inactive)

In: For the sequence GUUCUUUUUCUUCGGUUCCTT against Olfr1020 , give its measured z-score value.
Out: 0.769 (inactive)

In: For the sequence GGUACAUAUGUGAUGACCGTT against Cdh4 , give its measured z-score value.
Out: -0.289 (inactive)

----------
experiment: Components of the Cytosolic LPS Sensing Pathway: Gene Identification via Genome-wide siRNA Screen;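 note: robust z of the log signal after scaling to non-targeting control siRNA wells of the plate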
test parameters: RAW264.7 macrophages, IL-1a HTRF, actives lie on both sides, screened at 100 nM (by protocol), cells primed 5 h with Pam3CSK4 first
Screen size: about 53,000 sequences; about 3,700 (7%) were called active. Shown is part of a subset that was picked to be rich in actives.
property measured: z-score
Quick one: just the number, no unit, thanks!

Previously resolved entries follow.
In: For the sequence GCAGAAUUGAGUCACCCAATT against Sp1 , give its measured z-score value.
Out: -2.56

In: For the sequence GCUUGAUGACUACCACUGATT against Rrp36 , give its measured z-score value.
Out: 0.496

In: For the sequence GGAAGUGGCCUUAAAGUAUTT against Arhgef37 , give its measured z-score value.
Out: -1.67

In: For the sequence GGAGAGAUGCCUUUUAAGUTT against Zfp954 , give its measured z-score value.
Out: -0.252

In: For the sequence GCAAUGUCGCCAAACGUAATT against Ikzf1 , give its measured z-score value.
Out: 0.457

In: For the sequence GGCCGUUUUUUGGCAUCGUTT against Acss1 , give its measured z-score value.
Out: -1.71

In: For the sequence CGGUAUGAGUAGGAUCUCCTT against Cd83 , give its measured z-score value.
Out: -0.577

In: For the sequence GGAGUAUGAUAAUGAACCATT against Areg , give its measured z-score value.
Out: -0.0698

---
In: For the sequence GGAAGGUCAAAGUCCUUUATT against Pitpnm2 , give its measured z-score value.
Out: -0.685

In: For the sequence GGAUUCACCUGUUAUCUUUTT against Tapbpl , give its measured z-score value.
Out: 0.303

In: For the sequence GGCAGAACCCUUUGAUGACTT against Fos , give its measured z-score value.
Out: -0.0931

In: For the sequence GGUCAUCUCAGUACUACAATT against Dgat2 , give its measured z-score value.
Out: 0.251

----------
experiment: Components of the Cytosolic LPS Sensing Pathway: Gene Identification via Genome-wide siRNA Screen;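 note: robust z of the log signal after scaling to non-targeting control siRNA wells of the plate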
test parameters: RAW264.7 macrophages, IL-1a HTRF, actives lie on both sides, screened at 100 nM (by protocol), cells primed 5 h with Pam3CSK4 first
About 3,700 (7%) of roughly 53,000 sequences were called active.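 How the source made its calls: active means gene knockdowns whose robust z-score for IL-1 alpha signal is at least 2 or at most -2, so actives lie on both sides; inactive means the rest.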 This is one part of a sample in which actives are shown more often than they occur.
Would you mind answering with one of these outcomes? active, inactive

Take a look at these entries with their results.
In: Dear all, I need the recorded test outcome for GGAGGGCAUCCUCUUCAAATT against Drc3 , thank you.
Out: inactive

In: Dear all, I need the recorded test outcome for CCACGAUAGCACCUAUUUUTT against Gucy2c , thank you.
Out: inactive

In: Dear all, I need the recorded test outcome for CCUUGAGAAAGCUCCAGUUTT against Cldn9 , thank you.
Out: inactive

In: Dear all, I need the recorded test outcome for GGCCUUCCGCAUUUUAUCATT against Zfp729a , thank you.
Out: active

In: Dear all, I need the recorded test outcome for GGGACUGGACCCAUACAAUTT against Cox5b , thank you.
Out: active

In: Dear all, I need the recorded test outcome for GGUUGUUCACUAGGUCACUTT against Creg2 , thank you.
Out: inactive

In: Dear all, I need the recorded test outcome for GGUCAACCAUUCCUCUUGATT against Ccdc9b , thank you.
Out: inactive

In: Dear all, I need the recorded test outcome for GGUUCAAGGUGAAGACUCCTT against Reg3b , thank you.
Out: inactive

---
In: Dear all, I need the recorded test outcome for GGCUAAUUCUCAAAGAGAUTT against Dnttip2 , thank you.
Out: inactive

In: Dear all, I need the recorded test outcome for GGAAUUUCACUAACCUUAGTT against Tert , thank you.
Out: inactive

In: Dear all, I need the recorded test outcome for GCGUGCAUAUAUCCAAUGCTT against Tardbp , thank you.
Out: inactive

In: Dear all, I need the recorded test outcome for GGCAAAACAUGCUUGGACCTT against Zfp687 , thank you.
Out: active

In: Dear all, I need the recorded test outcome for GCCUUAGGGAGUGUUAAAATT against Spink8 , thank you.
Out: inactive
